Biological target: GST-ZFHD1 (Zif268 fingers 1-2, GGRR linker, Oct-1 homeodomain) (synthetic chimera (mouse Zif268 / human …, UniProt P08046;P14859 P08046:333-390,P14859:378-439))
Assay: EMSA; 10 mM Hepes pH 7.9, 50 mM KCl, 0.5 mM EDTA, 30 C; apparent Kd
Details: tags: N-terminal GST (pGEX2T)

| BINDER | Kd / nM |
| --- | --- |
| hybrid site probe TAATGATGGGCG (dsDNA) DNA 1: CCTCGAGGCGCCCATCATTACTAGGTACC DNA 2: GGTACCTAGTAATGATGGGCGCCTCGAGG | 0.84 |
